Items are presented alongside their recorded In vitro Hepatocyte Clearance, Human % hep Blood flow.
MEASUREMENT TYPE: In vitro Hepatocyte Clearance, Human % hep Blood flow (%)

{"MOLECULE": "CCN(CCOC)C[C@H](c1ccccc1)N(C)C(=O)Cc1ccc(Cl)c(Cl)c1.Cl", "NUMERIC READOUT": 89}
{"MOLECULE": "COCCOCCOCCO[C@H]1CCN(C[C@H](c2ccccc2)N(C)C(=O)Cc2ccc(Cl)c(Cl)c2)C1.Cl", "NUMERIC READOUT": 84}
{"MOLECULE": "CN(C(=O)C(c1ccccc1)c1ccccc1)[C@H](CN1CC[C@H](O)C1)c1ccccc1 [Asimadoline, asimadoline, reference compound]", "NUMERIC READOUT": 79.0}

###

Items are presented alongside their recorded In vitro Hepatocyte Clearance, Rat % hep Blood flow.
MEASUREMENT TYPE: In vitro Hepatocyte Clearance, Rat % hep Blood flow (%)

{"COMPOUND": "COCCOCCOCCOCCOCCNC(=O)O[C@H]1CCN(C[C@H](c2ccccc2)N(C)C(=O)Cc2ccc(Cl)c(Cl)c2)C1.Cl", "MEASUREMENT UNIT": "%", "NUMERIC READOUT": 81}
{"COMPOUND": "CN(C(=O)Cc1ccc(Cl)c(Cl)c1)[C@H](CN1CCCC1)c1cccc(NS(=O)(=O)CCOCC(F)(F)F)c1.Cl", "MEASUREMENT UNIT": "%", "NUMERIC READOUT": 45}
{"COMPOUND": "CN(C(=O)Cc1ccc(Cl)c(Cl)c1)[C@H](CN1CCCC1)c1ccc(OCCO)cc1.Cl", "MEASUREMENT UNIT": "%", "NUMERIC READOUT": 24}
{"COMPOUND": "COCCOCCOCCOCCOCCNc1ccc([C@@H](CN2CCCC2)N(C)C(=O)Cc2ccc(Cl)c(Cl)c2)cc1", "MEASUREMENT UNIT": "%", "NUMERIC READOUT": 44}
{"COMPOUND": "CN(C(=O)C(c1ccccc1)c1ccccc1)[C@H](CN1CC[C@H](O)C1)c1ccccc1 [Asimadoline, asimadoline, reference compound]", "MEASUREMENT UNIT": "%", "NUMERIC READOUT": 85.0}
{"COMPOUND": "COCCOCCOCCO[C@H]1CCN(C[C@H](c2ccccc2)N(C)C(=O)Cc2ccc(Cl)c(Cl)c2)C1.Cl", "MEASUREMENT UNIT": "%", "NUMERIC READOUT": 82}
{"COMPOUND": "CCN(CCOC)C[C@H](c1ccccc1)N(C)C(=O)Cc1ccc(Cl)c(Cl)c1.Cl", "MEASUREMENT UNIT": "%", "NUMERIC READOUT": 83}

###

- TARGET OR SYSTEM: recombinant human kappa (KOR) opioid receptor (Homo sapiens, UniProt P41145)
- Sequence (P41145 whole entry): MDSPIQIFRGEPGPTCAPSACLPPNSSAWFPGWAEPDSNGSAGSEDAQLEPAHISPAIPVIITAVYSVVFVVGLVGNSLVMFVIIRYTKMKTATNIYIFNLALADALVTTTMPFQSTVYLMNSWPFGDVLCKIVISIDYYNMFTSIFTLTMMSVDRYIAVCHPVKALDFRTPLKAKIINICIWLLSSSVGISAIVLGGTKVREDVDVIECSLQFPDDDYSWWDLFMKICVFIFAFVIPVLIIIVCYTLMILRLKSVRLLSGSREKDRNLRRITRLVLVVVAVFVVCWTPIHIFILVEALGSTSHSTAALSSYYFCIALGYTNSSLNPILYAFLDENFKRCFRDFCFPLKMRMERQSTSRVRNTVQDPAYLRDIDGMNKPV
- ASSAY NOTES: biochemical
pIC50: −log10 of the molar value.
MEASUREMENT TYPE: pIC50

{"COMPOUND STRING": "CN(C(=O)Cc1ccc(Cl)c(Cl)c1)[C@H](CN1CC[C@H](OCCOCCOCC(=O)O)C1)c1ccccc1", "MEASUREMENT TYPE": "pIC50", "NUMERIC READOUT": 6.24}
{"COMPOUND STRING": "CN(C(=O)C(c1ccccc1)c1ccccc1)[C@H](CN1CCCC1)c1cccc(N)c1", "MEASUREMENT TYPE": "pIC50", "NUMERIC READOUT": 7.21}
{"COMPOUND STRING": "CN(C(=O)Cc1ccc(Cl)c(Cl)c1)[C@H](CN1CC[C@H](O)C1)c1ccc(OCCO)cc1", "MEASUREMENT TYPE": "pIC50", "NUMERIC READOUT": 9.31}

###

- TARGET OR SYSTEM: recombinant human mu (MOR) opioid receptor (Homo sapiens, UniProt P35372)
- Construct: expressed in transfected cells; host or cells: CHO-K1 cell membranes
- Sequence (P35372 whole entry): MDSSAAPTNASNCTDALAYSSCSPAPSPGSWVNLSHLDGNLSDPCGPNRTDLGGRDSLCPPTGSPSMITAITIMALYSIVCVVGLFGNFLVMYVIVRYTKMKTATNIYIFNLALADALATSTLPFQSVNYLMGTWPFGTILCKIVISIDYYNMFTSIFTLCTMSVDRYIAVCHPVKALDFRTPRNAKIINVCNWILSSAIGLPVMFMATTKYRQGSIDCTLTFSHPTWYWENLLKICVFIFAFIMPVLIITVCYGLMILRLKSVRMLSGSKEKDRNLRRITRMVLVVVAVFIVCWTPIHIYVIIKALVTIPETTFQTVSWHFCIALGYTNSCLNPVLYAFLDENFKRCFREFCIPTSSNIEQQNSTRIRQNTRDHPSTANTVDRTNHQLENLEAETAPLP
- ASSAY NOTES: biochemical
- Format: binding
pIC50: −log10 of the molar value.
Items are presented alongside their recorded pIC50.

{"COMPOUND STRING": "CN(C(=O)Cc1ccc(Cl)c(Cl)c1)[C@H](CN1CC[C@H](OCCOCCOCCO)C1)c1ccccc1", "pIC50": 5.04}
{"COMPOUND STRING": "COCCOCCOCCOCCOCCO[C@H]1CCN(C[C@H](c2ccccc2)N(C)C(=O)Cc2ccc(Cl)c(Cl)c2)C1", "pIC50": 4.81}
{"COMPOUND STRING": "CN(C(=O)Cc1ccc(Cl)c(Cl)c1)[C@H](CN1CC[C@H](OCCO)C1)c1ccccc1", "pIC50": 5.35}
{"COMPOUND STRING": "CN(C(=O)Cc1ccc(Cl)c(Cl)c1)[C@H](CN1CC[C@H](OCCOCCO)C1)c1ccccc1", "pIC50": 4.41}
{"COMPOUND STRING": "CN(C(=O)Cc1ccc(Cl)c(Cl)c1)[C@H](CN1CC[C@H](OCCOCC(=O)O)C1)c1ccccc1", "pIC50": 4.13}
{"COMPOUND STRING": "CN(C(=O)Cc1ccc(Cl)c(Cl)c1)[C@H](CN1CC[C@H](OCCOCCOCC(=O)O)C1)c1ccccc1", "pIC50": 4.59}
{"COMPOUND STRING": "CN(C(=O)Cc1ccc(Cl)c(Cl)c1)[C@H](CN1CC[C@H](OCC(=O)O)C1)c1ccccc1", "pIC50": 3.80}
{"COMPOUND STRING": "COCCOCCOCCO[C@H]1CCN(C[C@H](c2ccccc2)N(C)C(=O)Cc2ccc(Cl)c(Cl)c2)C1.Cl", "pIC50": 4.69}
{"COMPOUND STRING": "COCCOCCOCCOCCOCCOCC(=O)Nc1cccc([C@@H](CN2CCCC2)N(C)C(=O)C(c2ccccc2)c2ccccc2)c1", "pIC50": 4.27}
{"COMPOUND STRING": "COCCOCCOCCOCCOCCNC(=O)O[C@H]1CCN(C[C@H](c2ccccc2)N(C)C(=O)Cc2ccc(Cl)c(Cl)c2)C1.Cl", "pIC50": 4.51}

###

- TARGET OR SYSTEM: recombinant human kappa (KOR) opioid receptor (Homo sapiens)
- ASSAY NOTES: biochemical
pIC50: −log10 of the molar value.
Think of 7 as a floor: if pIC50 stands on it or above, it is 1 (yes); beneath it, 0 (no).

{"COMPOUND": "COCCOCCOCCOCCOCCO[C@H]1CCN(C[C@H](c2ccccc2)N(C)C(=O)C(c2ccccc2)c2ccccc2)C1 [compound 9]", "CATEGORY": "0 (no)"}
{"COMPOUND": "CN(C(=O)Cc1ccc(Cl)c(Cl)c1)[C@H](CN1CCCC1)c1cccc(NS(C)(=O)=O)c1 [compound 14]", "CATEGORY": "1 (yes)"}
{"COMPOUND": "COCCOCCOCCOCCOCCOCCOCCOC(=O)N[C@H](C(=O)Nc1cccc([C@@H](CN2CC[C@H](O)C2)N(C)C(=O)Cc2ccc(Cl)c(Cl)c2)c1)C(C)C [compound 48]", "CATEGORY": "1 (yes)"}
{"COMPOUND": "COCCOCCOCCOCCOCCOc1ccc(CC(=O)N(C)[C@H](CN2CCCC2)c2ccccc2)cc1 [compound 13]", "CATEGORY": "0 (no)"}
{"COMPOUND": "CN(C(=O)Cc1ccc(Cl)c(Cl)c1)[C@H](CN1CC[C@H](OCC(=O)O)C1)c1ccccc1 [compound 24]", "CATEGORY": "0 (no)"}

###

- TARGET OR SYSTEM: recombinant human kappa (KOR) opioid receptor (Homo sapiens, UniProt P41145)
- Construct: expressed in transfected cells; host or cells: CHO-K1 cell membranes
- ASSAY NOTES: biochemical
- Type: binding
Items are presented alongside their recorded IC50.

{"COMPOUND": "COCCOCCS(=O)(=O)Nc1cccc([C@@H](CN2CCCC2)N(C)C(=O)Cc2ccc(Cl)c(Cl)c2)c1 [compound 20]", "MEASUREMENT UNIT": "nM", "IC50": 0.6}
{"COMPOUND": "CN(C(=O)Cc1ccc(Cl)c(Cl)c1)[C@H](CN1CCCC1)c1ccc(OCCO)cc1.Cl [compound 36]", "MEASUREMENT UNIT": "nM", "IC50": 0.43}
{"COMPOUND": "COCCOCCOCCOCCOCCNC(=O)O[C@H]1CCN(C[C@H](c2ccccc2)N(C)C(=O)Cc2ccc(Cl)c(Cl)c2)C1.Cl [compound 6]", "MEASUREMENT UNIT": "nM", "IC50": 1100}
{"COMPOUND": "COCCOCCOCCOCCOCCO[C@H]1CCN(C[C@H](c2ccccc2)N(C)C(=O)Cc2ccccc2[N+](=O)[O-])C1 [compound 41]", "MEASUREMENT UNIT": "nM", "IC50": 5200}
{"COMPOUND": "COCCOCCOCCOCCOCCOc1ccc([C@@H](CN2CCCC2)N(C)C(=O)Cc2ccc(Cl)c(Cl)c2)cc1.Cl [compound 34]", "MEASUREMENT UNIT": "nM", "IC50": 107}
{"COMPOUND": "CCCCOCCOCCOCCS(=O)(=O)Nc1cccc([C@@H](CN2CCCC2)N(C)C(=O)Cc2ccc(Cl)c(Cl)c2)c1 [compound 21]", "MEASUREMENT UNIT": "nM", "IC50": 0.18}
{"COMPOUND": "COCCOCCOCCOCCOCCN1CCN(C[C@H](c2ccccc2)N(C)C(=O)Cc2ccc(Cl)c(Cl)c2)CC1 [compound 39]", "MEASUREMENT UNIT": "nM", "IC50": 18500}
{"COMPOUND": "COCCOCCOCCOCCOCCO[C@H]1CCN(C[C@H](c2ccccc2)N(C)C(=O)Cc2ccc(Cl)c(Cl)c2)C1 [compound 7]", "MEASUREMENT UNIT": "nM", "IC50": 298}
{"COMPOUND": "CN(C(=O)Cc1ccc(Cl)c(Cl)c1)[C@H](CN1CC[C@H](OCCOCCO)C1)c1ccccc1 [compound 26]", "MEASUREMENT UNIT": "nM", "IC50": 1130}
{"COMPOUND": "COCCOCC(=O)Nc1cccc([C@@H](CN2CC[C@H](O)C2)N(C)C(=O)C(c2ccccc2)c2ccccc2)c1 [compound 11]", "MEASUREMENT UNIT": "nM", "IC50": 58.1}
{"COMPOUND": "COCCOCCOCCOCCOCCOCC(=O)Nc1cccc([C@@H](CN2CCCC2)N(C)C(=O)C(c2ccccc2)c2ccccc2)c1 [compound 12]", "MEASUREMENT UNIT": "nM", "IC50": 849}
{"COMPOUND": "COCCOCCOCCOCCOCCO[C@H]1CCN(C[C@H](c2ccccc2)N(C)C(=O)CNc2ccccc2)C1 [compound 8]", "MEASUREMENT UNIT": "nM", "IC50": 1480}
{"COMPOUND": "CN(C(=O)Cc1ccc(Cl)c(Cl)c1)[C@H](CN1CCCC1)c1cccc(NS(=O)(=O)CCOCC(F)(F)F)c1.Cl [compound 19]", "MEASUREMENT UNIT": "nM", "IC50": 0.69}
{"COMPOUND": "CCCCOCCOCCOCCS(=O)(=O)Nc1cccc([C@@H](CN2CCCC2)N(C)C(=O)Cc2ccccn2)c1 [compound 30]", "MEASUREMENT UNIT": "nM", "IC50": 464}
